Hello, the source for this data is patent US20030148956A1, in case you need it.

EXPERIMENTAL TARGET: corticotropin releasing factor 1 receptor
PROTOCOL DETAILS: cell-based or functional assay
Ends that are not written are not given here.
Exercise: state measured CRF1R Emax % for each of the binders provided.
Could you give me the number in %? Just the number is fine.

Q) Quick check: CRF1R Emax % of ZGPPISIDLPFWLLRKMIEIEKQEKEKQQAANNRLLLDTI (C-terminal amide) [SEQ ID NO 217] ?
A) 100

Q) Try the binder IVLSLDVPIGLLQKMIEIEKQEKEKQQATTNARILARV-NH2 [SEQ ID NO 322]
A) 10.7

Q) Same question, Ac-IVLSLDVPIGLLQILLEQARARAAREQATTNARILARV-NH2 [SEQ ID NO 354] this time
A) 13.4

Q) Also need NDDPPISIDLPFFLLRNMIEMARIENEREQAGLNAKYLAEV-NH2 [SEQ ID NO 264] , thanks.
A) 100

Q) Lookup ZGPPISIDLPFYLLRKMIEIEKQEKEKQQAANNALLLATI (C-terminal amide) [SEQ ID NO 231]
A) 100

Q) Cool, now ZGPPISIDLPYWLLRKMIEIEKQEKEKQQAANNARLLARI (C-terminal amide) [SEQ ID NO 289]
A) 69.5
